Data credit: patent US6545014B2

TARGET OR SYSTEM: human ETA receptors (Homo sapiens)
Sequence (P25101 21-427): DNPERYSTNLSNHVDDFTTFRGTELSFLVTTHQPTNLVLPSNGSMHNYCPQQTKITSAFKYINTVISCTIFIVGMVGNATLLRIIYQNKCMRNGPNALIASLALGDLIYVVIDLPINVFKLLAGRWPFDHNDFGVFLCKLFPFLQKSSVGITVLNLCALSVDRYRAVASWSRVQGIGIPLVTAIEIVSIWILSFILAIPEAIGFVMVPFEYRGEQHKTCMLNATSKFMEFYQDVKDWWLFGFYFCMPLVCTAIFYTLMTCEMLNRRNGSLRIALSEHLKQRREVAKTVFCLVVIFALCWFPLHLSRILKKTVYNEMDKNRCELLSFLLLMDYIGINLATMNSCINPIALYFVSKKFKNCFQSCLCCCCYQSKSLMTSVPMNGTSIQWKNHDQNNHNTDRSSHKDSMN
Listing: IC50 of selected molecules
MEASURED METRIC: IC50 (nM)

Cc1noc(NS(=O)(=O)c2c(C(=O)c3ccc4c(c3)OCO4)sc3ncccc23)c1Cl; 960
Cc1noc(NS(=O)(=O)c2c(Cc3cc4c(cc3CCO)OCO4)sc3ncccc23)c1Cl; 1.5
Cc1cc2c(cc1Cc1sc3ncccc3c1S(=O)(=O)Nc1noc(C)c1Cl)OCO2; 1
COc1cccc(OC)c1Cc1sc2ncccc2c1S(=O)(=O)Nc1onc(C)c1Cl; 650
Cc1ccc(Cc2sc3ncccc3c2S(=O)(=O)Nc2onc(C)c2Cl)c(C)c1; 4.5
Cc1noc(NS(=O)(=O)c2c(Cc3ccc4c(c3)OCO4)sc3ncccc23)c1Cl; 5.6

----------
TARGET OR SYSTEM: human ETB receptor (Homo sapiens)
Construct: expressed in transfected cells; host or cells: COS7 cells
Sequence (P24530 27-442): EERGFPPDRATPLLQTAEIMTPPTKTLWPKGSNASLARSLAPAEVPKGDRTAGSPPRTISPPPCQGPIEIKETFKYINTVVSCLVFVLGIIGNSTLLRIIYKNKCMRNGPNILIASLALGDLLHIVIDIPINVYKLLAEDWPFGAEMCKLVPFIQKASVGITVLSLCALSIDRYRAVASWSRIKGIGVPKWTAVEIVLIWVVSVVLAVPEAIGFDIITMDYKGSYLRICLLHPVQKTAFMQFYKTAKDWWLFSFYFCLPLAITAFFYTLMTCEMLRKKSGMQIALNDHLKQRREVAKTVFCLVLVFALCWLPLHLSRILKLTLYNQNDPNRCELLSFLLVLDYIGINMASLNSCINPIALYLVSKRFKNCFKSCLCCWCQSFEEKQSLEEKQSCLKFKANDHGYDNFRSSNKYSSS
TEST: Binding Test #2: inhibition of 125I-endothelin-1 binding to ETB receptors (transfected COS7 cell membranes)
CONDITION NOTES: incubation at 24° C.; generally the average of 2 to 3 experiments
Listing: log10(IC50) of selected compounds
MEASURED METRIC: log10(IC50) (log10 of the value in µM)

Cc1noc(NS(=O)(=O)c2c(Cc3cccc4ccccc34)sc3ncccc23)c1Cl; -0.25
Cc1noc(NS(=O)(=O)c2c(Cc3cc4c(cc3CCO)OCO4)sc3ncccc23)c1Cl; 0.56
CCc1sc2ncccc2c1S(=O)(=O)Nc1noc(C)c1Cl; 1.48
Cc1noc(NS(=O)(=O)c2c(C(=O)CCc3ccc4c(c3)OCO4)sc3ncccc23)c1Cl; 0.82
Cc1noc(NS(=O)(=O)c2c(C(=O)c3ccc4c(c3)OCO4)sc3ncccc23)c1Cl; 1.49
Cc1cc2c(cc1Cc1sc3ncccc3c1S(=O)(=O)Nc1noc(C)c1Cl)OCO2; -0.30
Cc1noc(NS(=O)(=O)c2c(Cc3ccc4c(c3)OCO4)sc3ncccc23)c1Cl; 0.45
